System: HEK-293T
assay.summary: Multiplex assay against HEK293T
Type: toxicity, cell-based
experimental.parameters: human, 48 h, 10 µM, compound concentration 10 uM, replicate 1
reported.metric: Population Mitochondria Different-Phenotype (%)

> print(dat)
                                   molecule  scale.unit  meas.value
1  N[C@@]1(C(=O)O)CO[C@H]2[C@H](C(=O)O)[C@H]21           %          18
2            O=C(O)Cc1ccccc1Nc1c(Cl)cccc1Cl           %          17
3  Cc1ccc(F)cc1C(=O)Nc1ccc(C(=O)N2Cc3cccn3Cc3ccccc32)c(Cl)c1           %          72
4                           CCCC(CCC)C(=O)O           %          11
5  O=S(=O)(c1ccccc1)c1cnc2c(N3CCNCC3)cccc2c1 [INTEPIRDINE]           %          45
6   CN(C)c1ccnc2sc3c(=O)n(N4CCCCCC4)cnc3c12           %          66
7  CC(C)(C)c1ccc(S(=O)(=O)Nc2ccc(Cl)cc2C(=O)c2cc[n+]([O-])cc2)cc1           %          12
8   CNC[C@H](O)c1ccc(O)c(O)c1 [EPINEPHRINE]           %          25

====

Test system: HEK-293T
assay.summary: Multiplex assay against HEK293T
Type: toxicity, cell-based
experimental.parameters: human, 24 h, 1 µM, compound concentration 1 uM, replicate 2
reported.metric: Population Apoptotic (%)

> print(dat)
                                   compound  meas.value
1  CSc1ccccc1N1CCN(CCCCCC(=O)NC2CCCc3ccccc32)CC1.Cl (stereo not given)          41
2  O=C(NCC(=O)N1CC[C@H](N[C@H]2CC[C@@](O)(c3ccc(-c4ncccn4)cn3)CC2)C1)c1cccc(C(F)(F)F)c1          39
3  COc1cc(NC(=O)CCN2CCC(OC(=O)Nc3ccccc3-c3ccccc3)CC2)c(Cl)cc1CNC[C@H](O)c1ccc(O)c2[nH]c(=O)ccc12          41
4           c1cc(OCCCN2CCCCC2)ccc1CN1CCCCC1          41
5  CCNC1(C(N)=O)CCN(c2ncnc3c2nc(-c2ccccc2Cl)n3-c2ccc(Cl)cc2)CC1          40

====

Recorded Population Fragmented Nuclei (%), one value per entry.
Test system: HEK-293T
assay.summary: Multiplex assay against HEK293T
Format: toxicity, cell-based
experimental.parameters: human, 24 h, 10 µM, compound concentration 10 uM, replicate 1
reported.metric: Population Fragmented Nuclei (%)

> print(dat)
                                   molecule  target.of.assay  meas.value
1  C[C@@H]1C[C@H]2[C@@H]3CCC4=CC(=O)C=C[C@]4(C)[C@@]3(F)[C@@H](O)C[C@]2(C)[C@@]1(O)C(=O)CO [DEXAMETHASONE]         HEK-293T          8%
2  CSc1ccccc1N1CCN(CCCCCC(=O)NC2CCCc3ccccc32)CC1.Cl (stereo not given)         HEK-293T          5%
3  COc1cc(NC(=O)CCN2CCC(OC(=O)Nc3ccccc3-c3ccccc3)CC2)c(Cl)cc1CNC[C@H](O)c1ccc(O)c2[nH]c(=O)ccc12 [BATEFENTEROL]         HEK-293T         87%
4  CC(C)(C)c1ccc(S(=O)(=O)Nc2ccc(Cl)cc2C(=O)c2cc[n+]([O-])cc2)cc1 [VERCIRNON]         HEK-293T         10%
5  Oc1c(CN2CCN(c3ccccn3)CC2)cc(Cl)c2cccnc12         HEK-293T         18%
